Biological target: ADAMTS4 (Homo sapiens (Human))
Experiment: Selectivity assay for ADAMTS-7 modulators: ADAMTS4 (FRET substrate)
Assay type: biochemical
Conditions: ADAMTS4 (R&D 4307-AD) 50 nM, substrate Dabcyl-EEVKAKVQPY-Glu(Edans)-NH2 1 μM, 120 min, 32° C.
Description: 1 μl test compound solution (dissolved in DMSO, at the corresponding concentration) or pure DMSO as a control was added per well. […] The increase of fluorescence intensity was measured in appropriate fluorescence plate reader (e.g. TECAN Ultra) using the respective wavelengths for excitation and emission. IC50 values were calculated from percentage of inhibition of enzyme activity as a function of test compound concentration.
Provide the reported pIC50 of each item.
Give bare numbers, as −log10 of the molar value.

Hello, I would appreciate it if you could give pIC50 for each entry below.
1. Cn1ccnc1C1(CNC(=O)c2ccccc2-c2ccc(C(F)(F)F)cc2)NC(=O)NC1=O (stereo not shown)
2. O=C1NC(=O)[C@](CNC(=O)c2ccc(C(F)(F)F)cc2-c2ccc(Cl)cc2)(C2CC2)N1
3. O=C1NC(=O)C(CNC(=O)c2ccccc2-c2ccc(C(F)(F)F)cc2)(c2ncccc2C(F)(F)F)N1 (racemic) [Example 243]
4. Cc1cccc(C(=O)NC[C@@]2(C3CC3)NC(=O)NC2=O)c1-c1ccc(C(F)(F)F)cc1

a:
1: 5.74; 2: 5.12; 3: 4.35; 4: 5.06

----------
Target: ADAMTS4 (Homo sapiens (Human), UniProt O75173)
Sequence (O75173 213-685): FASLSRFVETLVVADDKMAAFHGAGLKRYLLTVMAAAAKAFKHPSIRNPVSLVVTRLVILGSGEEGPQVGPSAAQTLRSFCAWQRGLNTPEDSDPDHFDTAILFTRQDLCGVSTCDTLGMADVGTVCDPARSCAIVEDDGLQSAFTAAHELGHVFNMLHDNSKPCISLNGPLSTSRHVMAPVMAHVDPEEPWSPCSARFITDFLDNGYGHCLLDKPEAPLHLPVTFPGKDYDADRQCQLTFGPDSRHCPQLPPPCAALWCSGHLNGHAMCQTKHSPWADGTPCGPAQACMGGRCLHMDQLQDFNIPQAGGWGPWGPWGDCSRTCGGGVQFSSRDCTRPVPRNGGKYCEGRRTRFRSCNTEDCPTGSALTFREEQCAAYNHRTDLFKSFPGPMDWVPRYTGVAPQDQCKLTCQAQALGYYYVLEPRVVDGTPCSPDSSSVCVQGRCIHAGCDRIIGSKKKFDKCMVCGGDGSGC
Assay: Selectivity assay for ADAMTS-7 modulators: ADAMTS4 (FRET substrate)
Type: biochemical
Details: ADAMTS4 (R&D 4307-AD) 50 nM, substrate Dabcyl-EEVKAKVQPY-Glu(Edans)-NH2 1 μM, 120 min, 32° C.
Protocol: 1 μl test compound solution (dissolved in DMSO, at the corresponding concentration) or pure DMSO as a control was added per well. […] The increase of fluorescence intensity was measured in appropriate fluorescence plate reader (e.g. TECAN Ultra) using the respective wavelengths for excitation and emission. IC50 values were calculated from percentage of inhibition of enzyme activity as a function of test compound concentration.
Provide the reported IC50 of each item.

> print(dat)
                                   compound   result
1  Cc1nc(C)c(C2(CNC(=O)c3ccccc3-c3ccc(C(F)(F)F)cc3)NC(=O)NC2=O)s1 (stereo not shown) [Example 47]  4.15 µM
2  O=C1NC(=O)[C@](CNC(=O)c2cc(F)ccc2-c2ccc(C3CC3(F)F)cc2)(C2CC2)N1 (stereo partly shown)    11 µM
3  Cc1ccc(-c2ncccc2C(=O)NC[C@@]2(C3CC3)NC(=O)NC2=O)cc1    36 µM

Next item in the queue.
q: Param readout = IC50; param system = ADAMTS4 (Homo sapiens (Human), UniProt O75173); param query = O=C1NC(=O)C(CNC(=O)c2ccc(F)cc2-c2ccc(C(F)(F)F)cc2)(c2ncsc2C2CC2)N1 (racemic) [Example 272] ; response: value
a: 7.8 µM

----------
molecular target: ADAMTS4 (Homo sapiens (Human), UniProt O75173); assay: Selectivity assay for ADAMTS-7 modulators: ADAMTS4 (FRET substrate); format: biochemical; details: ADAMTS4 (R&D 4307-AD) 50 nM, substrate Dabcyl-EEVKAKVQPY-Glu(Edans)-NH2 1 μM, 120 min, 32° C.
Measurement type: IC50 (µM)
One number for each entry, in µM.

Example cases with answers are listed next.
> print(dat)
                                   molecule                                 tested.on  unit.name  result.number
1  Cn1ccnc1C1(CNC(=O)c2ccc(Cl)cc2-c2ccc(Cl)cc2)NC(=O)NC1=O (single isomer, unassigned; ent-4)  ADAMTS4 (Homo sapiens (Human), UniProt O75173)         µM          0.463
2  Cc1nn(C)cc1C1(CNC(=O)c2ccccc2-c2ccc(C(F)(F)F)cc2)NC(=O)NC1=O (racemic) [Example 60]  ADAMTS4 (Homo sapiens (Human), UniProt O75173)         µM             15

Next item in the queue.
q: If you can, please state the reported IC50 value of O=C1NC(=O)C(CNC(=O)c2ccc(F)cc2-c2ccc(C(F)(F)F)cc2)(C2(Cl)CC2)N1 (racemic) .
a: 16

----------
molecular target: ADAMTS4 (Homo sapiens (Human), UniProt O75173); test: Selectivity assay for ADAMTS-7 modulators: ADAMTS4 (FRET substrate); format: biochemical; conditions: ADAMTS4 (R&D 4307-AD) 50 nM, substrate Dabcyl-EEVKAKVQPY-Glu(Edans)-NH2 1 μM, 120 min, 32° C.
Measurement type: pIC50
Answers are plain numbers, as −log10 of the molar value.

Example cases with answers are listed next.
> print(dat)
                                   compound  measurement.type  result.number
1  Cc1ncoc1C1(CNC(=O)c2ccccc2-c2ccc(C(F)(F)F)cc2)NC(=O)NC1=O (racemic)             pIC50           4.55
2  Cn1nccc1C1(CNC(=O)c2ccccc2-c2ccc(Cl)cc2)NC(=O)NC1=O (racemic) [Example 181]             pIC50           4.92

Hello, I would appreciate it if you could give pIC50 for each entry below.
1. O=C1NC(=O)C(CNC(=O)c2ccccc2-c2ccc(C(F)(F)F)cc2)(C2(F)CC2)N1 (racemic) [Example 254]
2. Cc1ccc(-c2ccccc2C(=O)NCC2(C3CCC3)NC(=O)NC2=O)cc1 (stereo not shown)
3. O=C1NC(=O)C(CNC(=O)c2ccc(F)cc2-c2ccc(Cl)cc2)(c2ncccc2C(F)(F)F)N1 (racemic)
4. Cn1ccnc1C1(CNC(=O)c2ccccc2-c2ccc(Cl)cc2)NC(=O)NC1=O (single isomer, unassigned; ent-4)
5. Cc1ncsc1C1(CNC(=O)c2ccccc2-c2ccc(Cl)cc2)NC(=O)NC1=O (single isomer, unassigned; ent-4)

a:
[4.59, 4.82, 4.39, 5.23, 5.32]

----------
biological target: ADAMTS4 (Homo sapiens (Human), UniProt O75173); experiment: Selectivity assay for ADAMTS-7 modulators: ADAMTS4 (FRET substrate); format: biochemical; conditions: ADAMTS4 (R&D 4307-AD) 50 nM, substrate Dabcyl-EEVKAKVQPY-Glu(Edans)-NH2 1 μM, 120 min, 32° C.
So basically: is IC50 under 8 µM? Then Yes. Not under? Then No.

q: Does the reported IC50 of O=C1NC(=O)C(CNC(=O)c2ccccc2-c2ccc(C(F)(F)F)cc2)(c2ccnn2C2CC2)N1 (stereo not shown) [Example 46] stay below 8 µM?
a: Yes

q: Does the reported IC50 of Cc1nscc1C1(CNC(=O)c2ccccc2-c2ccc(C(F)(F)F)cc2)NC(=O)NC1=O (stereo not shown) [Example 86] stay below 8 µM?
a: Yes

q: Does the reported IC50 of O=C1NC(=O)[C@](CNC(=O)c2cc(F)ccc2-c2ccc(Cl)cc2)(C2CC2)N1 [Example 233] stay below 8 µM?
a: Yes

----------
Provide the reported pIC50 of each item.
biological target: ADAMTS4 (Homo sapiens (Human), UniProt O75173); assay: Selectivity assay for ADAMTS-7 modulators: ADAMTS4 (FRET substrate); type: biochemical; conditions: ADAMTS4 (R&D 4307-AD) 50 nM, substrate Dabcyl-EEVKAKVQPY-Glu(Edans)-NH2 1 μM, 120 min, 32° C.
One number for each entry, as −log10 of the molar value.

Example cases with answers are listed next.
> print(dat)
                                   compound                                 tested.on  measurement.type  result.number
1  Cc1ccc(-c2ccc(F)cc2C(=O)NC[C@@]2(C3CC3)NC(=O)NC2=O)cc1  ADAMTS4 (Homo sapiens (Human), UniProt O75173)             pIC50           5.55
2  Cc1cn(C)nc1C1(CNC(=O)c2ccccc2-c2ccc(C(F)(F)F)nc2)NC(=O)NC1=O (stereo not shown) [Example 72]  ADAMTS4 (Homo sapiens (Human), UniProt O75173)             pIC50           5.16
3  Cc1ccc(-c2cc(C(F)(F)F)ccc2C(=O)NC[C@@]2(C3CC3)NC(=O)NC2=O)cc1  ADAMTS4 (Homo sapiens (Human), UniProt O75173)             pIC50           5.35

q: If you can, please state the reported pIC50 value of O=C1NC(=O)C(CNC(=O)c2cccc(F)c2-c2ccc(C(F)(F)F)cc2)(C2(F)CC2)N1 (single isomer, unassigned; ent-6) [Example 300] .
a: 4.64

----------
biological target: ADAMTS4 (Homo sapiens (Human)); experiment: Selectivity assay for ADAMTS-7 modulators: ADAMTS4 (FRET substrate); assay type: biochemical; details: ADAMTS4 (R&D 4307-AD) 50 nM, substrate Dabcyl-EEVKAKVQPY-Glu(Edans)-NH2 1 μM, 120 min, 32° C.
Measurement type: IC50 (µM)
Numbers only, in µM.

Example cases with answers are listed next.
> print(dat)
                                   compound  measurement.type  result.number
1  Cc1ccc(C(=O)NCC2(c3ccnn3C)NC(=O)NC2=O)c(-c2ccc(C(F)(F)F)cc2)c1 (single isomer, unassigned; ent-5)              IC50            4.2
2  N#Cc1ccc(-c2ccccc2C(=O)NC[C@@]2(C3CC3)NC(=O)NC2=O)cc1              IC50             26

Hello, I would appreciate it if you could give IC50 for each entry below.
1. Cc1ccc(-c2ccccc2C(=O)NCC2(c3nccs3)NC(=O)NC2=O)cc1 (racemic) [Example 200]
2. O=C1NC(=O)C(CNC(=O)c2ccccc2-c2ccc(Cl)cc2)(c2ncccc2C(F)(F)F)N1 (racemic)
3. Cc1cnoc1C1(CNC(=O)c2ccccc2-c2ccc(C(F)(F)F)cc2)NC(=O)NC1=O (racemic) [Example 59]
4. Cn1nccc1C1(CNC(=O)c2ccc(F)cc2-c2ccc(C(F)(F)F)cc2)NC(=O)NC1=O (single isomer, unassigned; ent-5) [Example 184]

a:
1. 28
2. 29
3. 23
4. 9.37
